Below is a list of entries, each paired with its recorded pKd value.
- tgt: EGFR (human, UniProt P00533)
- assay-notes: SPR
# pKd = -log10(concentration in molar units)

{"binder": "EG2_6_119 (designed binder) QVQLVCSGGGLVQAGDSLRVSCAASGRDFSDYVMGWFRQAPGKEREFVAAISRNGLTTRYADSVKGRFTISRDNDKNMVYLQMNSLKPEDTAVYYCAVNSAGTYVSPRSREYDYWCQGTQVTVSS", "test-readout": "pKd", "value-measured": 7.59}

Let's switch to this binder now.
## Task For the binder shown here, EG2 (antibody, V domains shown) VH: QVQLVESGGGLVQAGDSLRVSCAASGRDFSDYVMGWFRQAPGKEREFVAAISRNGLTTRYADSVKGRFTISRDNDKNMVYLQMNSLKPEDTAVYYCAVNSAGTYVSPRSREYDYWGQGTQVTVSS , give the reported pKd.
## Result 7.84
